molecular target: MST1 (Homo sapiens, UniProt Q13043); assay: MST1 protein kinase inhibition (Table 5); assay type: biochemical; settings: read-out: MST1 IC50
Sequence (Q13043 whole entry, looked up): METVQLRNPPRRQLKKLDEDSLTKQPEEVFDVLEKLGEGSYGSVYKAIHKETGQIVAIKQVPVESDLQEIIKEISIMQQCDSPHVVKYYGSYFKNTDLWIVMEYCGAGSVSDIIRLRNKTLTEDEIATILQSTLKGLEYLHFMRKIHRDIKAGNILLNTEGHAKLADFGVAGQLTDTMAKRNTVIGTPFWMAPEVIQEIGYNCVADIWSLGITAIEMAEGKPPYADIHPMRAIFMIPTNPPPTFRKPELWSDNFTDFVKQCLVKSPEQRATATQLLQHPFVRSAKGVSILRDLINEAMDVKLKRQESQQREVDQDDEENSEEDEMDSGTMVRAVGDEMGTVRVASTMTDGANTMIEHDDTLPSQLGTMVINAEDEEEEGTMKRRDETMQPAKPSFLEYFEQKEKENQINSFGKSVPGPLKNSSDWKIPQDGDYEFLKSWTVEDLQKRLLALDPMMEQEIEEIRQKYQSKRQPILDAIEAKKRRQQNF
ASSAY ENDPOINT: IC50 (nM)

| STRUCTURE SMILES STRING | TARGET ENTITY | ASSAY ENDPOINT | NUMERIC READOUT |
| --- | --- | --- | --- |
| CC(C)N1c2ccccc2C(=O)N(C)c2cnc(Nc3ccc(S(N)(=O)=O)cc3)nc21 | MST1 (Homo sapiens, UniProt Q13043) | IC50 | 830 |
| CN1C(=O)c2sccc2N(C)c2nc(Nc3ccc(N)cc3)ncc21 | MST1 (Homo sapiens, UniProt Q13043) | IC50 | 2160 |
| CCN1CCN(Cc2ccc(Nc3ncc4c(n3)N(C)c3ccccc3C(=O)N4C)cc2C(F)(F)F)CC1 | MST1 (Homo sapiens, UniProt Q13043) | IC50 | 1910 |
| CCN1c2ccccc2C(=O)N(C)c2cnc(Nc3ccc(S(N)(=O)=O)cc3)nc21 | MST1 (Homo sapiens, UniProt Q13043) | IC50 | 40 |
